Item-by-item account of Toxicity
test system: MT4; experiment: Toxicity was determined by evaluation of cluster morphology and reclustering properties in mock infected MT-4 cells at 125 uM concentration; format: cell-based; conditions: human, mt4, 125 µM

Recorded Toxicity, per entry:
[[record]]
compound = "CCc1cn([C@H]2C[C@H](N=[N+]=[N-])[C@@H](CO)O2)c(=O)[nH]c1=O"
measured_target = "MT4"
meas_value = "> 90%"

[[record]]
compound = "Cc1cn([C@H]2CC[C@@H](CO)O2)c(=O)[nH]c1=O"
measured_target = "MT4"
meas_value = "< 10%"

[[record]]
compound = "CNc1nc(=O)n(C2CC(N=[N+]=[N-])C(CO)O2)cc1C (stereo unspecified)"
measured_target = "MT4"
meas_value = "< 10%"

[[record]]
compound = "Nc1ccn([C@H]2C=C[C@@H](CO)O2)c(=O)n1"
measured_target = "MT4"
meas_value = "> 90%"

[[record]]
compound = "CCc1cn(C2CC(F)C(CO)O2)c(=O)[nH]c1=O (stereo unspecified)"
measured_target = "MT4"
meas_value = "< 10%"


Please report the measured Toxicity for "Nc1ncnc2c1ncn2[C@H]1C[C@H](F)[C@@H](CO)O1" tested on MT4.
< 10%

Please report the measured Toxicity for "Nc1ncnc2c1ncn2[C@H]1CC[C@@H](CO)O1" tested on MT4.
< 10%

Please report the measured Toxicity for "CO[C@H]1C[C@H](n2cc(C)c(=O)[nH]c2=O)O[C@@H]1CO" tested on MT4.
> 90%

Please report the measured Toxicity for Nc1ccn([C@H]2CC[C@@H](CO)O2)c(=O)n1 [ZALCITABINE] tested on MT4.
> 90%

Please report the measured Toxicity for "O=c1ccn([C@H]2C=C[C@@H](CO)O2)c(=O)[nH]1" tested on MT4.
> 90%

Please report the measured Toxicity for "Nc1ncnc2c1ncn2[C@H]1C=C[C@@H](CO)O1" tested on MT4.
> 90%
